# target-of-assay: HDAC6 (Homo sapiens)
# Sequence (Q9UBN7 1-1215): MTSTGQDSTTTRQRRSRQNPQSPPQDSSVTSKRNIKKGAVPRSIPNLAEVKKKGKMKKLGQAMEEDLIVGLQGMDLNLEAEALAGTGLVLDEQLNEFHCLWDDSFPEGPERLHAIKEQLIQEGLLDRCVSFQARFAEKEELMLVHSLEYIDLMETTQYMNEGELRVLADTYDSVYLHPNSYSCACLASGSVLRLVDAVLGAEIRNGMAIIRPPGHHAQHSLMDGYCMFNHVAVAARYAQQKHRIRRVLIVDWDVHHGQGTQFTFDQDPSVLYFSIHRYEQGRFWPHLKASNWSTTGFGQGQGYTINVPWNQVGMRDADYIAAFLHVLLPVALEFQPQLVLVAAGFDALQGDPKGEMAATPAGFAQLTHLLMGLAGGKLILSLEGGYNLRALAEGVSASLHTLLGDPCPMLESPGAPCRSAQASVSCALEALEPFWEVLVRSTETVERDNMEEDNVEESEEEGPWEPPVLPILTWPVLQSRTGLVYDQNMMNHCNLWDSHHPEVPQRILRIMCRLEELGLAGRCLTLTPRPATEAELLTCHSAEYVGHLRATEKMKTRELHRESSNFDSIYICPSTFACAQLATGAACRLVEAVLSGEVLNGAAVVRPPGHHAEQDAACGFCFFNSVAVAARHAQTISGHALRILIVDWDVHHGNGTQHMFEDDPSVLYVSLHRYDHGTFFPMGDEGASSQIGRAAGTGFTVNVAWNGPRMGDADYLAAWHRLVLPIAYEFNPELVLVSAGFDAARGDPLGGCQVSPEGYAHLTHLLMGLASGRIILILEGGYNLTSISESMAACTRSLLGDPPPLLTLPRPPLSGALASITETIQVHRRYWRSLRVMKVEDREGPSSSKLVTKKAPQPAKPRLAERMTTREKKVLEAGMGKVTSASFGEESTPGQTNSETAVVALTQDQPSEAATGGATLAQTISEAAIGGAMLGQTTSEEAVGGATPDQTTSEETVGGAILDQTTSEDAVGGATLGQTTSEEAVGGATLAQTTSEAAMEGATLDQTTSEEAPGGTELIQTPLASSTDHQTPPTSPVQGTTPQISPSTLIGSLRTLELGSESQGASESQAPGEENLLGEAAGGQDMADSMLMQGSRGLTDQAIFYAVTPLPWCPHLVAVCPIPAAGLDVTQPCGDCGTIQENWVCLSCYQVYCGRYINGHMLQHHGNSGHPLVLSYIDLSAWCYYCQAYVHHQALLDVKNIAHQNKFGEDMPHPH
# assay-summary: In-vitro human HDAC6 fluorogenic inhibition assay (ZMAL substrate)
# Assay type: biochemical
# measurement-context: fluorogenic assay; n≥2, each in duplicate wells; read-out: Target Inhibition IC50 HDAC6
property-name: IC50 (nM)

(a) O=C(CCCCCCNC(=O)c1ncn2c(=O)n(CCCl)nnc12)NO
(b) O=C(NO)c1ccc(CNC(=O)c2ncn3c(=O)n(CCCl)nnc23)cc1
*Q* // compare: a vs b , metric IC50, want the smaller In your reply, give the label of the chosen option.
*A* b
(b: 23 nM, a: 38 nM)

###

# System: human primary glioblastoma cell line U251
# assay-summary: MTT cell viability assay, U251
# Format: cell-based
# measurement-context: Homo sapiens, U-251; MTT assay, 72 h; n≥3, each in triplicate wells; n.e.: no effect up to 100 μM; read-out: Antiproliferative Effect IC50 U251
pIC50: −log10 of the molar value.
property-name: pIC50

O=C(CCCNC(=O)c1ncn2c(=O)n(CCCl)nnc12)NO :: 3.34

(1) NC(=O)c1ncn2c(=O)n(CCCl)nnc12 [MTZ, mitozolomide, reference compound]
(2) O=C(CCCCCCNC(=O)c1ncn2c(=O)n(CCCl)nnc12)NO
(3) Cn1nnc2c(C(N)=O)ncn2c1=O [TMZ, temozolomide, reference compound]
(4) O=C(/C=C/c1ccc(CNC(=O)CCCc2ccccc2)cc1)NO
(5) O=C(CCCCCNC(=O)c1ncn2c(=O)n(CCCl)nnc12)NO
*Q* Sort (5 compounds) by pIC50: min first. Respond with an ordered listing of the labels, as requested.
*A* 3, 5, 1, 2, 4
(3: 3.34, 5: 3.85, 1: 4.07, 2: 4.32, 4: 4.62)

(A) O=C(NO)c1ccc(CNC(=O)c2ncn3c(=O)n(CCCl)nnc23)cc1
(B) Cn1nnc2c(C(=O)NCc3ccc(/C=C/C(=O)NO)cc3)ncn2c1=O
*Q* Of A and B , whose reported pIC50 is the larger number? In your reply, give the label of the chosen option.
*A* A
